# target.entity: Plasminogen activator inhibitor 1 (Homo sapiens, UniProt P05121)
# Sequence (P05121 whole entry): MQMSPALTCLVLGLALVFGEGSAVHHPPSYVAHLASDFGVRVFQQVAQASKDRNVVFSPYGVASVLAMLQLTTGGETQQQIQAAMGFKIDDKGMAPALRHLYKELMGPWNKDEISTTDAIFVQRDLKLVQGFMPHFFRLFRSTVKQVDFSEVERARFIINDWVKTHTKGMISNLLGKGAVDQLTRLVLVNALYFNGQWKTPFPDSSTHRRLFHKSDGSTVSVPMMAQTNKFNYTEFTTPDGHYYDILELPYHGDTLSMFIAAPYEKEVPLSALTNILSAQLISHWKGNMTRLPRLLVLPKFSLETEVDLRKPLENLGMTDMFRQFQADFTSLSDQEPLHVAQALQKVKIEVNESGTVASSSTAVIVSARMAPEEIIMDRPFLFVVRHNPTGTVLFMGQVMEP
# measurement.description: Inhibition of human PAI1 using tissue type plasminogen activator substrate by chromogenic absorbance at 405 nm
metric: pIC50
The quantity pIC50 is defined as the negative base-10 logarithm of the molar concentration.

CC(C)C[C@H]1c2c(O)c(C=O)c(O)c(C=O)c2O[C@@H](c2c(O)c(C=O)c(O)c(C=O)c2O)[C@@H]1C(C)C [SIDEROXYLONAL C] :: 5.33

With those in mind, consider the next compound.
stdin: pIC50 lookup needed for CC(C)CC(=O)c1c(O)c(C=O)c2c(c1O)C[C@H]1C[C@H](C(C)C)C=C[C@@]1(C)O2 [EUGLOBAL IIC] , thanks.
stdout: 3.15
